# subject.of.test: T1, natriuretic peptide receptor-B (human)
# T1 chain: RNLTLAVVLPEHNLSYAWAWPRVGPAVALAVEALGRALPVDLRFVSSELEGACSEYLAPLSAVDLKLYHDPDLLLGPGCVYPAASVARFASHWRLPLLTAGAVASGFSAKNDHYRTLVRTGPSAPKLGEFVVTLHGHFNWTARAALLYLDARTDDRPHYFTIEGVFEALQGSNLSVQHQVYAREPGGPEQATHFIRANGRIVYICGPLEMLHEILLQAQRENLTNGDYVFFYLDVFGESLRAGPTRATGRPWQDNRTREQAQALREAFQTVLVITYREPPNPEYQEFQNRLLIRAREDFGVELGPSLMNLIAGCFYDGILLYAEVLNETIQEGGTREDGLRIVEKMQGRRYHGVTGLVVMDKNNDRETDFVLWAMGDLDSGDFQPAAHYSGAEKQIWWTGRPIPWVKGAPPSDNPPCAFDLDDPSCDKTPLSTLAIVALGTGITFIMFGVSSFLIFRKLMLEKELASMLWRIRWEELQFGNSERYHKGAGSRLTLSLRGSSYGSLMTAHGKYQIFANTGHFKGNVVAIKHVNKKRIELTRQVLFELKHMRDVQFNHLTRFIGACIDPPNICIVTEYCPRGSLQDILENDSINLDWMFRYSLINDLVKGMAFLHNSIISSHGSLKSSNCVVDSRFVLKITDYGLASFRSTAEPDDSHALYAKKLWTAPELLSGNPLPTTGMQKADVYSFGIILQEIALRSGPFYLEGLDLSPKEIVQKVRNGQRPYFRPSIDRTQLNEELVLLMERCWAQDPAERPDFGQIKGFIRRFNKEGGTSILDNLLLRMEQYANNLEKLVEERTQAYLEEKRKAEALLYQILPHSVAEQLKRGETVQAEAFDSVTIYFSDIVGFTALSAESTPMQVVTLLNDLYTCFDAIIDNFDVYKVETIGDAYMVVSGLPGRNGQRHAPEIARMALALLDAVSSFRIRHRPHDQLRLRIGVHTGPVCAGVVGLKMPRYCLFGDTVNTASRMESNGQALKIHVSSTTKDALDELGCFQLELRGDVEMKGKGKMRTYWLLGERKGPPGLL
# experimental.details: cell-based or functional assay
Numbered stars: 1 amine (or outer) side, 2 acyl side, 3 side chain; on linkers, the order of the positions; unused ones are H or OH. Square brackets hold non-standard residues; d marks the D form. Ends that are not written are not given here. * marks the point of attachment. Sni = (S)-nipecotic acid, O=C([C@H]1CCCN([*:1])C1)[*:2]; Pro(cis-4-F) = O=C(O)[C@@H]1C[C@H](F)CN1; Hyp = O=C(O)[C@@H]1C[C@@H](O)CN1; tBuAla = CC(C)(C)C[C@H](N)C(=O)O; NMeL = CN[C@@H](CC(C)C)C(=O)O; Octanoyl = CCCCCCCC(=O)*; Che = not defined here; Occ = octanoic acid
recorded.endpoint: EC50 group, cGMP in GTM-3 cells

Previously resolved entries follow.
Prompt line: Fill blank: measured EC50 group, cGMP in GTM-3 cells of the binder [Occ][Sni]FLL[Hyp][NMeL]D[Apc(Gua)][Che] (not fully specified (residue 4); printed as Occ-Sni-Phe-leu-Leu-Hyp-Nml-Asp-Apc(Gua)-Che; reading uncertain) [JAL-1685] is ____.
Response line: ≤ 15 µM

Prompt line: Another binder to check: [Occ][dA]F[dR]L[Hyp][NMeL]TRI-NH2 [JAL-1333]
Response line: ≤ 5 µM

Prompt line: Another binder to check: Octanoyl-AFGLP[tBuAla]DRI-NH2 (not fully specified (some residues); printed as Occ-ala-Phe-Gly-Leu-Pro-Npg-Asp-Arg-Ile-NH2) [JAL-0896]
Response line: ≤ 15 µM

Now for the binder whose EC50 group, cGMP in GTM-3 cells we want.
Prompt line: Fill blank: measured EC50 group, cGMP in GTM-3 cells of the binder [Occ]AFGL[Pro(cis-4-F)]LDRI-NH2 (not fully specified (residue 2); printed as Occ-ala-Phe-Gly-Leu-Fpr-Leu-Asp-Arg-Ile-NH2) [JAL-0978] is ____.
Response line: ≤ 15 µM
